Here the recorded pKi is given for each entry.
molecular target: α2β2 nAChR (Rattus norvegicus, UniProt P12389+P12390); assay: Competition binding vs 500 pM [3H]EB, stably transfected HEK cells; details: read-out: Ki α2β2; vs 500pM [3H]EB, HEK cells, Mean ± SEM of three
pKi: −log10 of the molar value.
Assay Endpoint: pKi

c1cc(OC[C@@H]2CCCN2)ccn1 [H-11PNH]    < 5.00
c1cncc(OC[C@@H]2CCCN2)c1 [H-11MNH]    9.46
c1ccc(OCC2CCCN2)nc1 (stereo not shown) [H-11ONH]    < 5.00
CN1CCCC1COc1ccccn1 (stereo not shown) [H-11ONM]    < 5.00
